assay info: Plasma clearance in beagle dog at 0.5 mg/kg, iv and 1 mg/kg, po
Assay type: ADME, organism-based, Canis lupus familiaris
attribute measured: clearance (mL/min/kg)

INSERT INTO results (structure, attribute_measured, recorded_result) VALUES
  ('CNc1nc(Nc2cnn(CC(C)(C)O)c2Cl)ncc1C(F)(F)F', 'clearance', 22);

---

Documented clearance across a set of molecules
assay info: Plasma clearance in Sprague-Dawley rat at 0.5 mg/kg, iv
Type: ADME, organism-based
Set-up: dose 0.5 mg/kg, route intravenous
attribute measured: clearance (mL/min/kg)

INSERT INTO results (structure, recorded_result) VALUES
  ('CNc1nc(Nc2cnn(CC(C)(C)O)c2C)ncc1C(F)(F)F', 35),
  ('CNc1nc(Nc2cnn(CC(C)(C)O)c2Cl)ncc1C(F)(F)F', 21);
